Values from the supplement of paper PMC10567573

protein stability index values by entry
B1: MIA2 (parent)
chain: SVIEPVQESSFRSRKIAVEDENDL

variants of: B1; experiment: protein stability index of a GFP-peptide fusion (GPS, HEK-293T) (PSI 1-6); higher = more stable; conditions: c terminus: a fixed tail appended;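 note: lentivirally expressed fusions sorted by FACS into six bins by GFP to DsRed ratio, PSI derived from sequencing read proportions per bin multiplied by bin number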
Give only the figure.

K15C ... 5.2
I3F ... 5.32
E21D ... 5.38
S9F ... 4.64
R14H ... 5.4
L24W ... 4.73
S1E ... 5.28
I16N ... 5.6

Asked: In one line, give reported protein stability index of the entry D20A .
Given back: 4.63

Asked: Entry D20E needs its protein stability index filled in; supply it.
Given back: 5.72

Asked: Given the variant S10Y , write its reported protein stability index.
Given back: 4.81

Asked: Quickly give me recorded protein stability index for I16Q
Given back: 5.15

Asked: Please report the measured protein stability index for P5G
Given back: 4.65
